List of pKd values.
B1: NELF-E aptamer (parent)
chain: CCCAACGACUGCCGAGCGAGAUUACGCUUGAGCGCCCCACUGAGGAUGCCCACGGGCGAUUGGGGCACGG

variants of: B1; experiment: HiTS-RAP; settings: with NELF-E (Drosophila)
Just the number, please; pKd means minus log10 of the concentration in mol/L.

Sample records with pKd:
# variant key, readout name, value measured
rows = [
    ("C6G G16A", "pKd", 8.23),
    ("A8G C12G", "pKd", 8.24),
    ("U10G U28A", "pKd", 8.34),
    ("U10G G11A", "pKd", 8.21),
    ("U10G U60G", "pKd", 8.20),
]

query: Please give measured pKd of the following entry: G62U G64U
result: 8.25

query: Give pKd for the following variant: A8G C49U
result: 7.77

query: # return recorded pKd for input G18A G20U
result: 8.07

query: Please give measured pKd of the following entry: U23G A52G
result: 8.36

query: Please look at this variant and report its pKd: G11A U28C
result: 8.01

Ref: the RNAGym collection of RNA variant scans (doi:10.1038/nmeth.2970)
